- Study Target: AHR (Homo sapiens, UniProt P35869)
- Sequence (P35869 11-848): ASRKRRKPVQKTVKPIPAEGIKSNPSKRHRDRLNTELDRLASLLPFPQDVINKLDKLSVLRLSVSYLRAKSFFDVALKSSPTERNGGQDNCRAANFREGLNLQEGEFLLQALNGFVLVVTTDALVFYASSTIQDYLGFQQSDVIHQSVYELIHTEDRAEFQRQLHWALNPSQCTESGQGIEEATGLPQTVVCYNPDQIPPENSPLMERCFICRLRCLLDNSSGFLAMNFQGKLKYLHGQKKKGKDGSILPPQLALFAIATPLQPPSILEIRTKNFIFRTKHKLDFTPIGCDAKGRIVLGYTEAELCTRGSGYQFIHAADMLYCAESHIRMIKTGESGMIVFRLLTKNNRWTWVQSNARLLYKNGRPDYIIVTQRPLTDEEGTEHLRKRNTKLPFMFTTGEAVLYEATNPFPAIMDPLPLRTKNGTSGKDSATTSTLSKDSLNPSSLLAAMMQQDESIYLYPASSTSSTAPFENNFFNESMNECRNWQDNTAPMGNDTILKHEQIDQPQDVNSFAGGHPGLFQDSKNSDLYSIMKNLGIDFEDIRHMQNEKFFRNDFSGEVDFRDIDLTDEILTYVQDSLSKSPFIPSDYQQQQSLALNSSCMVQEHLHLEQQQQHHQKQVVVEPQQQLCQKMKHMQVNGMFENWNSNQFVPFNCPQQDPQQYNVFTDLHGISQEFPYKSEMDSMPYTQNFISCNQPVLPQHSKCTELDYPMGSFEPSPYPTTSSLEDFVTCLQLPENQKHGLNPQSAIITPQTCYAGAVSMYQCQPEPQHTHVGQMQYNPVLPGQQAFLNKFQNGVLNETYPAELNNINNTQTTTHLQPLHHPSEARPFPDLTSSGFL
- Assay Summary: In vitro assay 1: antagonism in human cell line (transactivation assay, kynurenic acid prestimulated)
- Condition Notes: Assay 1: AHR-luc Hum Antagonism IC50 [M], 150 μM kynurenic acid, 20 hours, firefly luciferase
Attribute Measured: IC50 (M)

Take a look at these entries with their results.
Which IC50 reading was recorded for the compound Cc1cccc(-n2nc(-c3ccc(Cl)cc3)cc(C(=O)NCC(O)C(F)(F)F)c2=O)c1 (stereo not shown) [Example 366] ? 9.7e-07

Which IC50 reading was recorded for the compound O=C(NCC(O)C(F)(F)F)c1cc(-c2ccc(Cl)cc2)nn(-c2cccc(Cl)c2)c1=O (single isomer, unassigned) [Example 64] ? 3.66e-07

Which IC50 reading was recorded for the compound O=C(NC(CO)C1CCOCC1)c1cc(-c2ccc(Cl)cc2)nn(-c2cccc(F)c2)c1=O (stereo not shown) [Example 149] ? 1.87e-07

Which IC50 reading was recorded for the compound CC(CCO)NC(=O)c1cc(-c2ccc(C(F)(F)F)cc2)nn(-c2cccc(F)c2)c1=O (racemic) [Example 253] ? 2.89e-08

Which IC50 reading was recorded for the compound `CC(C)C[C@@H](CO)NC(=O)c1cc(-c2ccc(Cl)cc2)nn(-c2cccc(Cl)c2)c1=O` ? 5.14e-07

Which IC50 reading was recorded for the compound O=C(NCC(O)C(F)(F)F)c1cc(-c2ccc(Cl)c(F)c2)nn(-c2cccc(F)c2)c1=O (single isomer, unassigned) [Example 283] ? 1.91e-07

P. O=C(NC(CO)C1CCC1)c1cc(-c2ccc(Cl)cc2)nn(-c2cccc(F)c2)c1=O (single isomer, unassigned; (-)) [Example 211]
Q. Cc1ccc(-c2cc(C(=O)NCC(C)O)c(=O)n(-c3cccc(F)c3)n2)cc1 (stereo not shown) [Example 13]
R. O=C(N[C@H](CO)C(F)(F)F)c1cc(-c2ccc(C(F)F)cc2)nn(-c2cccc(F)c2)c1=O
Which order do these items take when sorted by rising IC50? List them. Give me the labels in the order the question wants. R, P, Q
(R: 3.66e-09 M, P: 1.66e-08 M, Q: 1.43e-07 M)
